Sourced from paper PMC8179362

Molecular target: VIM-2 (Escherichia coli, UniProt Q5U7L7)
Test: Imipenem hydrolysis by purified VIM-2, competitive inhibition model
Type: biochemical
attribute measured: Ki (nM)

molecule="CCOC(=O)[C@@]1(CS)N[C@@H](C(=O)O)CS1 [D-anti-1a]" unit_name=nM experimental_result=390
molecule="CCOC(=O)[C@@]1(CS)N[C@@H](C(=O)O)C(C)(C)S1 [D-anti-1b]" unit_name=nM experimental_result=900
molecule="CCOC(=O)[C@]1(CS)N[C@@H](C(=O)O)C(C)(C)S1 [D-syn-1b]" unit_name=nM experimental_result=1900
molecule="CCOC(=O)[C@]1(CS)N[C@H](C(=O)O)C(C)(C)S1 [L-anti-1b]" unit_name=nM experimental_result=750
molecule="CCOC(=O)[C@@]1(CS)N[C@H](C(=O)O)C(C)(C)S1 [L-syn-1b]" unit_name=nM experimental_result=3600
molecule="CCOC(=O)[C@]1(CS)N[C@H](C(=O)O)CS1 [L-anti-1a]" unit_name=nM experimental_result=380

====

This section presents compounds with their documented log10 Ki values.
Target: UniProt C7C422
attribute measured: log10 Ki (log10 of the value in µM)

compound="CCOC(=O)[C@@]1(CS)N[C@H](C(=O)O)C(C)(C)S1 [L-syn-1b]" experimental_result=0.90
compound="CCOC(=O)[C@]1(CS)N[C@H](C(=O)O)CS1 [L-anti-1a]" experimental_result=0.72
compound="CCOC(=O)[C@@]1(CS)N[C@@H](C(=O)O)CS1 [D-anti-1a]" experimental_result=0.40
compound="CCOC(=O)[C@@]1(CS)N[C@@H](C(=O)O)C(C)(C)S1 [D-anti-1b]" experimental_result=0.49
compound="CCOC(=O)[C@]1(CS)N[C@H](C(=O)O)C(C)(C)S1 [L-anti-1b]" experimental_result=-0.36

====

Target: IMP-1 (Serratia marcescens)
Sequence (P52699 19-246, looked up, species assumed): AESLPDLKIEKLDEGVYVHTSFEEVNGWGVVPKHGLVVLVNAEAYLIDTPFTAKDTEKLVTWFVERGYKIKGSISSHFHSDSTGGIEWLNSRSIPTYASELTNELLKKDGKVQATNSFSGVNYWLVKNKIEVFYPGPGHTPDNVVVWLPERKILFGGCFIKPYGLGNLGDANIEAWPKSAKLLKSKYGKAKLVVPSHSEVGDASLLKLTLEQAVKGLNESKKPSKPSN
So basically: is Ki under 1000 nM? Then true (1). Not under? Then false (0).

compound="CCOC(=O)[C@@]1(CS)N[C@H](C(=O)O)C(C)(C)S1 [L-syn-1b]" answer_label="false (0)"
compound="CCOC(=O)[C@]1(CS)N[C@@H](C(=O)O)C(C)(C)S1 [D-syn-1b]" answer_label="false (0)"
compound="CCOC(=O)[C@@]1(CS)N[C@@H](C(=O)O)CS1 [D-anti-1a]" answer_label="false (0)"
compound="CCOC(=O)[C@@]1(CS)N[C@@H](C(=O)O)C(C)(C)S1 [D-anti-1b]" answer_label="true (1)"
compound="CCOC(=O)[C@]1(CS)N[C@H](C(=O)O)C(C)(C)S1 [L-anti-1b]" answer_label="true (1)"

====

Tested on: K. pneumoniae (6907), VIM-2
Experiment: Imipenem MIC, broth microdilution, clinical isolate
Assay type: cell-based
Conditions: MMTZ at constant 100 mg/L
This section presents compounds with their documented MIC of imipenem (IMI) + MMTZ values.
attribute measured: MIC of imipenem (IMI) + MMTZ (mg/L)

compound="CCOC(=O)[C@@]1(CS)N[C@@H](C(=O)O)C(C)(C)S1 [D-anti-1b]" attribute_measured="MIC of imipenem (IMI) + MMTZ" experimental_result=1
compound="CCOC(=O)[C@]1(CS)N[C@H](C(=O)O)CS1 [L-anti-1a]" attribute_measured="MIC of imipenem (IMI) + MMTZ" experimental_result=2
compound="CCOC(=O)[C@@]1(CS)N[C@H](C(=O)O)C(C)(C)S1 [L-syn-1b]" attribute_measured="MIC of imipenem (IMI) + MMTZ" experimental_result=4
compound="CCOC(=O)[C@]1(CS)N[C@H](C(=O)O)C(C)(C)S1 [L-anti-1b]" attribute_measured="MIC of imipenem (IMI) + MMTZ" experimental_result=1
compound="CCOC(=O)[C@]1(CS)N[C@@H](C(=O)O)C(C)(C)S1 [D-syn-1b]" attribute_measured="MIC of imipenem (IMI) + MMTZ" experimental_result=4
compound="CCOC(=O)[C@@]1(CS)N[C@@H](C(=O)O)CS1 [D-anti-1a]" attribute_measured="MIC of imipenem (IMI) + MMTZ" experimental_result=2

====

Biological target: E. coli cells expressing NDM-1 (Klebsiella pneumoniae)
Sequence (C7C422 29-270, looked up): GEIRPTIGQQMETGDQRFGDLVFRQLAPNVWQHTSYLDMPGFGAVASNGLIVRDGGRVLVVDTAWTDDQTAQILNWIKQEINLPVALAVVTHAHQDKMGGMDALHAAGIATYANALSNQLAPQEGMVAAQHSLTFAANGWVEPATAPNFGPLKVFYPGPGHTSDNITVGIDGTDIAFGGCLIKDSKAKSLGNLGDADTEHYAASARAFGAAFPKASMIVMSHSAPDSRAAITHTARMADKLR
attribute measured: IC50 (µM)

molecule="CCOC(=O)[C@]1(CS)N[C@H](C(=O)O)CS1 [L-anti-1a]" unit_name=µM experimental_result=54
molecule="CCOC(=O)[C@@]1(CS)N[C@@H](C(=O)O)CS1 [D-anti-1a]" unit_name=µM experimental_result=64
molecule="CCOC(=O)[C@]1(CS)N[C@H](C(=O)O)C(C)(C)S1 [L-anti-1b]" unit_name=µM experimental_result=160
molecule="CCOC(=O)[C@@]1(CS)N[C@H](C(=O)O)C(C)(C)S1 [L-syn-1b]" unit_name=µM experimental_result=230
molecule="CCOC(=O)[C@@]1(CS)N[C@@H](C(=O)O)C(C)(C)S1 [D-anti-1b]" unit_name=µM experimental_result=210
